Origin of the recorded values: the supplement of paper PMC4862054

test system: MDA-MB-453; assay: normalised viability (% of control), CellTiter-Blue; higher = more viable cells (about 100 = DMSO control); conditions: incubation time: 72 h
Measured normalised viability values are reported for all entries that follow.
Could you kindly put the unit after your number?

Reported normalised viability for O=P1(N(CCCl)CCCl)NCCCO1 (configuration not stated) [Cyclophosphamide] (1200 nM) was 112%

Reported normalised viability for O=C(Nc1cccnc1)N1CCC(Cc2cccc(Oc3ccc(C(F)(F)F)cn3)c2)CC1 [PF-3845] (300 nM) was 98.4%

Reported normalised viability for Cc1[nH]c2ccccc2c1CCNCc1ccc(/C=C/C(=O)NO)cc1 [Panobinostat] (30 nM) was 3.77%

Reported normalised viability for S=P(N1CC1)(N1CC1)N1CC1 [Thio-TEPA] (3000 nM) was 95.5%

Reported normalised viability for COCC1(CO)C(=O)C2CCN1CC2 (configuration not stated) [Prima-1 Met] (300 nM) was 87.1%

Reported normalised viability for CN(C)CCOc1ccc(/C(=C(/CCCl)c2ccccc2)c2ccccc2)cc1 [Toremifene] (300 nM) was 101%

Reported normalised viability for CC(C)C[C@@H](C(=O)N[C@H](C(=O)OC1CCCC1)c1ccccc1)[C@H](O)C(=O)NO [Tosedostat] (300 nM) was 51.8%

----------
Measured EC50, CellTiter-Blue viability values are reported for all entries that follow.
tested on: Hs578T; conditions: 72 h

// worked examples, EC50, CellTiter-Blue viability included
Cc1cc(Nc2cc(CN3CCOCC3)c3nc(C)c(Cc4ccc(Cl)cc4F)n3n2)n[nH]1; 2080 nM
c1ccc2c(CCNc3ccc(Nc4ccncc4)cc3)c[nH]c2c1 [Serdemetan]; 1540 nM

Reported EC50, CellTiter-Blue viability for COCC1(CO)C(=O)C2CCN1CC2 (stereo not given) [Prima-1 Met] was > 10000 nM

Reported EC50, CellTiter-Blue viability for COc1cc2ncnc(Nc3ccc(F)c(Cl)c3)c2cc1OCCCN1CCOCC1 [Gefitinib] was 1060 nM

Reported EC50, CellTiter-Blue viability for CC(C)C[C@@H](C(=O)N[C@H](C(=O)OC1CCCC1)c1ccccc1)[C@H](O)C(=O)NO [Tosedostat] was 2140 nM

----------
system: CAL-148; assay: normalised response (% of control), CellTiter-Glo; higher = more viable cells (100 = DMSO, 0 = benzethonium chloride kill control); settings: incubation time: 72 h
Measured normalised response values are reported for all entries that follow.
Your answer is read as %, so omit the unit and give the number.

// worked examples, normalised response included
O=C(Nc1ccncc1)C(=O)c1cn(Cc2ccc(Cl)cc2)c2ccccc12 [Indibulin] (10000 nM); 103
COc1cc2/c(=N/c3ccc(Br)cc3F)nc[nH]c2cc1OCC1CCN(C)CC1 [Vandetanib] (1000 nM); 78.9
Cc1ccc(NC(=O)c2ccc(CN3CCN(C)CC3)cc2)cc1Nc1nc(-c2cccnc2)cs1 [Masitinib] (10000 nM); 97.7
O=C(Nc1cccnc1)N1CCC(Cc2cccc(Oc3ccc(C(F)(F)F)cn3)c2)CC1 [PF-3845] (10000 nM); 88.4
CCc1c2c(nc3ccc(OC(=O)N4CCC(N5CCCCC5)CC4)cc13)-c1cc3c(c(=O)n1C2)COC(=O)[C@]3(O)CC [Irinotecan] (10000 nM); 26.4
Oc1ccc2c(c1)CC[C@H](c1ccccc1)[C@@H]2c1ccc(OCCN2CCCC2)cc1 [Lasofoxifene] (1000 nM); 122

Reported normalised response for COc1cc2c(NC3CCN(C(C)C)CC3)nc(N3CCC(F)(F)CC3)nc2cc1OCCCN1CCCC1 [UNC0642] (10000 nM) was 32.4

Reported normalised response for Cc1cc(Nc2cc(CN3CCOCC3)c3nc(C)c(Cc4ccc(Cl)cc4F)n3n2)n[nH]1 [Gandotinib] (10000 nM) was 96.7

Reported normalised response for CNC(=O)c1ccc(N2C(=S)N(c3ccc(C#N)c(C(F)(F)F)c3)C(=O)C2(C)C)cc1F [Enzalutamide] (10000 nM) was 96.1

Reported normalised response for O=P1(N(CCCl)CCCl)NCCCO1 (stereo not given) [Cyclophosphamide] (40000 nM) was 101
